The measurements presented in this section are drawn from the NIST ThermoML archive (doi:10.1021/je700206y).

experimental_parameters: 293.2 K; 101.33 kPa; Liquid
observable: mass density (kg/m3)

{"molecule": "COC(=O)CCC(=O)OC [dimethyl 1,4-butanedioate]", "observable": "mass density", "endpoint_result": 1119.13}
{"molecule": "COC(=O)CCCC(=O)OC [dimethyl pentanedioate]", "observable": "mass density", "endpoint_result": 1087.67}
{"molecule": "O=CO", "observable": "mass density", "endpoint_result": 1220.04}
{"molecule": "COC(=O)CCCCC(=O)OC [dimethyl 1,6-hexanedioate]", "observable": "mass density", "endpoint_result": 1061.72}
